experiment: NCI Yeast Anticancer Drug Screen. Data for the mlh1 rad18 strain (AID 175); details: S. cerevisiae mlh1 rad18 strain growth inhibition; at 50.0 µM
The panel holds about 79,000 compounds, 15% with a hit somewhere; the sample as a whole holds those more often. The source made the active and inactive calls. Cut-off read from the data, not from the text of the source: active = growth inhibition above about 70%; inactive = the rest.
Output constraint: value belongs to yes (1) for active, no (0) for inactive

Past entries and their recorded results:
>  <compound>
CC(=O)O.[RuH].c1ccc([PH+](c2ccccc2)c2ccccc2)cc1.c1ccc([PH+](c2ccccc2)c2ccccc2)cc1.c1ccc([PH+](c2ccccc2)c2ccccc2)cc1

>  <qualitativeLabel>
no (0)

$$$$
>  <compound>
CC(=O)OC1OC(CS[As](C)CCO)C(OC(C)=O)C(OC(C)=O)C1OC(C)=O (centres undefined)

>  <qualitativeLabel>
no (0)

$$$$
>  <compound>
COc1cc(CC(N)Cc2c[nH]c3ccccc23)cc(OC)c1OC (centres undefined)

>  <qualitativeLabel>
no (0)

$$$$
>  <compound>
O=C([O-])Cc1ccccc1.O=[N+]([O-])O.[Co+3].[NH2-].[NH2-].[NH2-].[NH2-].[NH2-]

>  <qualitativeLabel>
no (0)

$$$$
>  <compound>
O=P1(N(CCCl)CCCl)Nc2cc3ccccc3cc2N1

>  <qualitativeLabel>
no (0)

$$$$
>  <compound>
O=C(O)C(C(=O)O)P(=S)(S)c1ccccc1 (centres undefined)

>  <qualitativeLabel>
no (0)

$$$$
>  <compound>
NC(=S)C1=C(N)Oc2c(c(=O)oc3ccccc23)C1c1ccc(Br)cc1 (centres undefined)

>  <qualitativeLabel>
no (0)

$$$$
>  <compound>
O=C1c2ccccc2C[CH]1[Hg][Cl] (centres undefined)

>  <qualitativeLabel>
yes (1)

$$$$
>  <compound>
CCCCCCCC(=O)[O][Hg][c]1ccccc1

>  <qualitativeLabel>
yes (1)

$$$$
>  <compound>
O=C(COc1ccc(Cl)c(Cl)c1)Nc1cccc(S(=O)(=O)F)c1

>  <qualitativeLabel>
no (0)

$$$$

Kindly consider the entry below.
QUERY: Which result was noted for this compound in the test: C[Si](C)(C)C#CC#C[Si](C)(C)C.[Ni].[Ni].[Ni].[Ni].[c-]1[c-][c-][cH-][c-]1.[c-]1[c-][c-][cH-][c-]1.[c-]1[c-][c-][cH-][c-]1.[c-]1[c-][c-][cH-][c-]1
RESULT: no (0)

---

Test: NCI Yeast Anticancer Drug Screen. Data for the rad50 strain (AID 155);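 note: 0% = growth of vehicle-only cultures of the same strain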
Conditions: S. cerevisiae rad50 strain growth inhibition; at 50.0 µM
Experimental: Growth inhibition of yeast strains with defined genetic alterations is measured as a screen for potential anti-cancer activity. Selected strains with alterations in DNA damage repair or cell cycle control were exposed to compounds and growth inhibition was measured relative to vehicle treated controls. The strain used in this assay is rad50
The panel holds about 79,000 compounds, 15% with a hit somewhere; the sample as a whole holds those more often. The source made the active and inactive calls. Rule as the data show it: active = growth inhibition above about 70%; inactive = the rest.
Output constraint: value belongs to 1 (yes) for active, 0 (no) for inactive

QUERY: Which result was noted for this compound in the test: O=C(O)c1cc(I)cc(I)c1I
RESULT: 0 (no)

QUERY: Which result was noted for this compound in the test: CC1=CC(=C2C=CC(=[N+](C)C)C=C2)C=C(C)S1
RESULT: 0 (no)

QUERY: Which result was noted for this compound in the test: COc1cc(C2c3cc4c(cc3C(O)[C@H]3COC(=O)C23)OCO4)cc(OC)c1O (stereo partly specified)
RESULT: 0 (no)

QUERY: Which result was noted for this compound in the test: NC(Cc1ccccc1)c1ccccc1 (stereo unspecified) (tested in a mixture with another compound)
RESULT: 0 (no)

QUERY: Which result was noted for this compound in the test: CC1C(c2ccccc2)OCCN1C (stereo unspecified)
RESULT: 0 (no)

QUERY: Which result was noted for this compound in the test: O=C(C1CO1)C(Cl)(Cl)Cl (stereo unspecified)
RESULT: 0 (no)

QUERY: Which result was noted for this compound in the test: CCNC(=O)CCl
RESULT: 0 (no)

QUERY: Which result was noted for this compound in the test: CCC[CH2][Sn]1([CH2]CCC)[O]CC(CN2CCOCC2)[O]1 (stereo unspecified)
RESULT: 1 (yes)

QUERY: Which result was noted for this compound in the test: CC1(C)N=C(N)N=C(N)N1c1ccc(CCCCc2ccccc2S(=O)(=O)F)c(Cl)c1
RESULT: 1 (yes)

QUERY: Which result was noted for this compound in the test: O=C([CH-]C(=O)C(F)(F)F)c1ccco1.O=C([CH-]C(=O)C(F)(F)F)c1ccco1.O=C([CH-]C(=O)C(F)(F)F)c1ccco1.[Ru+3]
RESULT: 0 (no)

QUERY: Which result was noted for this compound in the test: CO/C1=C\C(C)=C\C(C)C(O)C(C)C/C(C)=C/C=C/C(OC)C(C(C)C(O)C(C)C2(O)CC(O)C(C)C(C(C)C)O2)OC1=O (stereo unspecified)
RESULT: 1 (yes)

QUERY: Which result was noted for this compound in the test: C=CC(C)(C)C12CC3C(=O)N/C(=C\c4cnc[nH]4)C(=O)N3C1Nc1ccccc12 (stereo unspecified)
RESULT: 0 (no)

QUERY: Which result was noted for this compound in the test: CC1(C)N=C(N)N=C(N)N1c1ccc(CCCCc2ccc(S(=O)(=O)F)c(Cl)c2)c(Cl)c1
RESULT: 1 (yes)

QUERY: Which result was noted for this compound in the test: CCC[CH2][Sn]1([CH2]CCC)[O]C(=O)c2cccc(OC)c2[O]1
RESULT: 1 (yes)

QUERY: Which result was noted for this compound in the test: CC(=O)O[C@H]1CCC2[C@@H]3CCC4Nc5oncc5C[C@]4(C)C3CC[C@@]21C (stereo partly specified)
RESULT: 0 (no)

QUERY: Which result was noted for this compound in the test: C1CC[N-]CC1.C1CC[N-]CC1.C1CC[N-]CC1.C1CC[N-]CC1.[Cl][Rh][Cl]
RESULT: 0 (no)

QUERY: Which result was noted for this compound in the test: COC(=O)CNP(=O)(NCC(=O)OC)N(CCCl)CCCl
RESULT: 0 (no)

QUERY: Which result was noted for this compound in the test: CC[N+](C)(CC)CCC(C(=O)NC)(c1ccccc1)c1ccccc1
RESULT: 0 (no)

QUERY: Which result was noted for this compound in the test: CC(C)[C@H](C)/C=C/[C@@H](C)C1CC[C@H]2[C@@]34C=C[C@]5(C[C@@H](O)CC[C@]5(C)[C@H]3CC[C@]12C)OO4 (stereo partly specified)
RESULT: 0 (no)

QUERY: Which result was noted for this compound in the test: O=NNc1ncccn1
RESULT: 0 (no)

QUERY: Which result was noted for this compound in the test: COc1cc(CC(C)N)ccc1O (stereo unspecified)
RESULT: 0 (no)

---

test: NCI Yeast Anticancer Drug Screen. Data for the bub3 strain (AID 167); details: S. cerevisiae bub3 mutant strain, at 50.0 µM
The panel holds about 79,000 compounds, 15% with a hit somewhere; the sample as a whole holds those more often. Active and inactive are the calls of the source. Rule as the data show it: active = growth inhibition above about 70%; inactive = the rest.
Output constraint: value belongs to y (active), n (inactive)

QUERY: Which result was noted for this compound in the test: COC(=O)C(C)NP(=O)(N1CC1)N1CC1 (centres undefined)
RESULT: n

---

assay: NCI Yeast Anticancer Drug Screen. Data for the sgs1 mgt1 strain (AID 161);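 note: 0% = growth of cultures given vehicle only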; conditions: S. cerevisiae sgs1 mgt1 strain, at 50.0 µM, hits give high values
This is part of a sample that, as a whole, favours compounds with a hit. Of some 79,000 tested, about 15% had one in any assay.
Quick rule for you: growth inhibition at 40% or higher means YES, lower means NO.

Past entries and their recorded results:
>  <molecule>
CNC(=O)c1cn(C2OC(CO)C(O)C2O)c2ncnc(N)c12 (stereo not given)

>  <qualitativeLabel>
NO

$$$$
>  <molecule>
C[C@]12CC[C@H](O)C[C@H]1CC[C@@H]1[C@@H]2CC[C@]2(C)[C@@H](C3=CC(=O)OC3)[C@@H](O)C[C@]12O

>  <qualitativeLabel>
NO

$$$$
>  <molecule>
O=S(=O)(F)c1cc(Cl)c(S)cc1Cl

>  <qualitativeLabel>
NO

$$$$
>  <molecule>
CN1c2ccccc2NP1(=S)c1ccccc1 (stereo not given)

>  <qualitativeLabel>
YES

$$$$
>  <molecule>
COC(=O)/C=C/[C@@H]1[C@H](C)N1S(=O)(=O)c1ccc(C)cc1 (stereo not given in full)

>  <qualitativeLabel>
NO

$$$$
>  <molecule>
CC1=CC(=O)NP(=O)(Oc2ccc(C)cc2)N1 (stereo not given)

>  <qualitativeLabel>
NO

$$$$
>  <molecule>
OCC12COCN1COC2

>  <qualitativeLabel>
NO

$$$$
>  <molecule>
CC(NC(=O)C(c1ccccc1)c1ccccc1)C(=O)O (stereo not given)

>  <qualitativeLabel>
NO

$$$$
>  <molecule>
COC1(O[C@H]2CC[C@H]3[C@@H]4CCC5=CC(=O)CC[C@]5(C)[C@H]4CC[C@]23C)CCCCC1

>  <qualitativeLabel>
YES

$$$$
>  <molecule>
ClC(CN1CCCCC1)C(Cl)c1ccccc1 (stereo not given)

>  <qualitativeLabel>
YES

$$$$

QUERY: Determine whether this molecule has growth inhibition no lower than 40%: O=c1oc2cc(O)ccc2c(O)c1C(c1ccc(/C=C/c2ccccc2)cc1)c1c(O)c2ccc(O)cc2oc1=O
RESULT: YES

QUERY: Determine whether this molecule has growth inhibition no lower than 40%: CC(C)(NC1=NCCO1)c1ccccc1
RESULT: NO
